- system.name: 40 binding sites (other than the D1 site)
- assay.protocol: Screen for activity at 40 binding sites
- condition.notes: 40 binding sites other than D1, all except D2 and alpha2 adrenergic; read-out: IC50 at binding sites found inactive
quantity.kind: IC50

Query: IC50; subject: Cl.Oc1cc2c(cc1O)[C@@H]1c3ccccc3CN[C@H]1CC2 (relative stereo) [Compound 6a, hydrochloride]
Response: > 10 µM

###

- system.name: D1A receptor (C-6-mD1A) (Macaca mulatta, UniProt O77680)
- Sequence (O77680 whole entry): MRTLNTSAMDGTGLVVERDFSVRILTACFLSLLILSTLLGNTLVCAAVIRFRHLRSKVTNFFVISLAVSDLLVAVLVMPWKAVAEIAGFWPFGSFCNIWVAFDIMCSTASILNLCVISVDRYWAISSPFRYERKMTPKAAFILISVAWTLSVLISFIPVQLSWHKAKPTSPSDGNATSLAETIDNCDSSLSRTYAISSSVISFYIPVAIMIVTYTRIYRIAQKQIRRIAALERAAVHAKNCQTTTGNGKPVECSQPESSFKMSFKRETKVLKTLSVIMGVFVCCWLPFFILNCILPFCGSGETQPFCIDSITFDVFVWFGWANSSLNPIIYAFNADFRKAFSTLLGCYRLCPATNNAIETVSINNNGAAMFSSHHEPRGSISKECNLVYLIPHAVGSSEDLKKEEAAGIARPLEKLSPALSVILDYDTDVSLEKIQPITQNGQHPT
- assay.protocol: Binding, cloned D1A receptor in C-6 cells
- condition.notes: monkey receptor, read-out: Cloned Receptors D1A C-6 (monkey)
quantity.kind: pKi
Quick note: pKi means taking -log10 of the concentration in moles per liter.

Query: Sample Cl.Oc1cc2c(cc1O)[C@@H]1c3ccccc3CN[C@H]1CC2 (relative stereo) [Compound 6a, hydrochloride] — what was its pKi?
Response: 8.66
